measured target: dopamine transporter (DAT) (Rattus norvegicus)
Sequence (P23977 whole entry): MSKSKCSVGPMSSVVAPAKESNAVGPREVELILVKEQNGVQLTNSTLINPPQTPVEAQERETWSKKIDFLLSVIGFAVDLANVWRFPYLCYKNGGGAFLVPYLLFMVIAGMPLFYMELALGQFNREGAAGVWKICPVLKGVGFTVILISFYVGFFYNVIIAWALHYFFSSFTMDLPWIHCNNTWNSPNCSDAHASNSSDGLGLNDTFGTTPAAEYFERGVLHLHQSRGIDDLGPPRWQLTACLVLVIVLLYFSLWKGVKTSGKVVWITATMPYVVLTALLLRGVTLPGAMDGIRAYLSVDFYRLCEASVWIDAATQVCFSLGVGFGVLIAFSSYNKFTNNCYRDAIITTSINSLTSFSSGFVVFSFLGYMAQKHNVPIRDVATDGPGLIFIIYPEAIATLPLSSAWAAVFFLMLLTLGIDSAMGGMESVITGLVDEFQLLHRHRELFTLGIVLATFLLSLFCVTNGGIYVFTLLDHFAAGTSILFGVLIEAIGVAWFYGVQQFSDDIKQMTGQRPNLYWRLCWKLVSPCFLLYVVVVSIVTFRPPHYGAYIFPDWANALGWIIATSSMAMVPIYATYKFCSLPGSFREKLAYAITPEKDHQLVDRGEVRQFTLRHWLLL
test protocol: Radioligand binding to dopamine transporter, [3H]GBR-12935, rat corpus striatum homogenate
observation type: Ki

[
  {
    "molecule": "COC(=O)[C@H]1[C@@H](c2ccc(-c3cccc(CNC(=O)OC(C)(C)C)c3)cc2)C[C@@H]2CC[C@H]1N2C",
    "result": "> 10 µM"
  },
  {
    "molecule": "COC(=O)C1C(c2ccc(-c3cncc4ccccc34)cc2)CC2CCC1N2C (stereo not drawn)",
    "result": "> 30 µM"
  },
  {
    "molecule": "COC(=O)C1C(c2ccc(-c3cccc(C(=O)c4ccccc4)c3)cc2)CC2CCC1N2C (stereo not drawn)",
    "result": "> 3 µM"
  }
]

###

measured target: dopamine transporter (DAT) (Rattus norvegicus)
test protocol: Radioligand binding to dopamine transporter, [3H]GBR-12935, rat corpus striatum homogenate;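 also: displacement read as filter-bound tritium by liquid scintillation counting, roughly 1 mg wet tissue per tube, IC50 from fitted concentration-inhibition curves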
condition info: read-out: DAT (Ki); rat corpus striatum membranes; [3H]GBR-12935 400 pM; on ice 45 min; Ki from IC50 by Cheng-Prusoff
pKi: −log10 of the molar value.
observation type: pKi

[
  {
    "compound": "COC(=O)C1C(c2ccc(-c3cccc(O)c3)cc2)CC2CCC1N2C (centres unmarked) [Compound 2]",
    "measured target": "dopamine transporter (DAT) (Rattus norvegicus)",
    "recorded number": 7.82
  },
  {
    "compound": "COC(=O)C1C(c2ccc(-c3ccccc3C(C)=O)cc2)CC2CCC1N2C (centres unmarked) [Compound 6a]",
    "measured target": "dopamine transporter (DAT) (Rattus norvegicus)",
    "recorded number": 5.99
  },
  {
    "compound": "COC(=O)C1C(c2ccc(-c3ccc(OC)cc3)cc2)CC2CCC1N2C (centres unmarked) [Compound 3c]",
    "measured target": "dopamine transporter (DAT) (Rattus norvegicus)",
    "recorded number": 7.88
  },
  {
    "compound": "COC(=O)C1C(c2ccc(-c3cnc4ccccc4c3)cc2)CC2CCC1N2C (centres unmarked) [Compound 20]",
    "measured target": "dopamine transporter (DAT) (Rattus norvegicus)",
    "recorded number": 7.22
  },
  {
    "compound": "COC(=O)C1C(c2ccc(-c3cccc(N)c3)cc2)CC2CCC1N2C (centres unmarked) [Compound 5]",
    "measured target": "dopamine transporter (DAT) (Rattus norvegicus)",
    "recorded number": 7.62
  },
  {
    "compound": "COC(=O)C1C(c2ccc(-c3ccccc3OC)cc2)CC2CCC1N2C (centres unmarked) [Compound 3a]",
    "measured target": "dopamine transporter (DAT) (Rattus norvegicus)",
    "recorded number": 6.45
  },
  {
    "compound": "COC(=O)C1C(c2ccc(-c3cccc([N+](=O)[O-])c3)cc2)CC2CCC1N2C (centres unmarked) [Compound 4b]",
    "measured target": "dopamine transporter (DAT) (Rattus norvegicus)",
    "recorded number": 8.02
  },
  {
    "compound": "COC(=O)C1C(c2ccc(-c3cccc(OC)c3)cc2)CC2CCC1N2C (centres unmarked) [Compound 3b]",
    "measured target": "dopamine transporter (DAT) (Rattus norvegicus)",
    "recorded number": 7.23
  }
]
